Answer each item with its documented scaled log2 fold change.
B1: library; numbered along this chain (parent)
chain: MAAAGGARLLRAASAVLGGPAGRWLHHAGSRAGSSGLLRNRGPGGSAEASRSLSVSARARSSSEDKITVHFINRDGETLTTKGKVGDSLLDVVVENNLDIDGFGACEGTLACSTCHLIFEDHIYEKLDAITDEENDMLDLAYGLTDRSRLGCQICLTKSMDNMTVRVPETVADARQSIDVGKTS

Variants of: B1
Test: scaled log2 fold change in cell abundance, elesclomol vs control (0 = silent mean, 1 = nonsense mean) (scaled log2 ratio); higher = higher viability under elesclomol (loss of FDX1 cuproptosis function);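 also: variant abundance is its share of total variant reads in each endpoint sample, from next-generation sequencing of the integrated ORF PCR-amplified out of genomic DNA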
Settings: with HEK293T FDX1 KO; elesclomol 40 nM; glucose 10 mM; 11 days
Give bare numbers.

Here are 10 variants together with their reported answers.
{"columns": ["mutation-string", "scaled log2 fold change"],
 "data": [
  ["N135T", -0.382],
  ["T131E", -0.395],
  ["I67H", 0.601],
  ["T81P", 1.32],
  ["T131K", 2.11],
  ["C106M", 1.09],
  ["A47K", 0.778],
  ["S46M", 0.185],
  ["N96D", 0.22],
  ["L79P", 0.299]
]}

Each variant below has a recorded value; state its scaled log2 fold change.
1. V171N
2. F119E

Key:
0.216
1.21

Provide scaled log2 fold change values for the following items, in order.
1. G29F
2. E134V
3. R41P
4. C152R
5. T114R
6. H116P
7. T81L

Key:
1. -0.149
2. 0.419
3. -0.655
4. 1.5
5. 0.411
6. 0.891
7. 0.885

I need scaled log2 fold change for every entry listed below, if you could help.
1. L150F
2. N135S
3. T170E

Key:
1. -0.211
2. -0.262
3. -0.644

Give scaled log2 fold change for each of the items listed below.
1. I67L
2. I67A
3. I154Y
4. K182I
5. E120K
6. E64A
7. S62H
8. V93A

Key:
1: 0.514; 2: 0.322; 3: 0.121; 4: 0.677; 5: 0.542; 6: 1.19; 7: 0.729; 8: 1.27
